system: APJ-eGFP fusion protein; assay: Internalization assay, CHO-M1 cells expressing APJ-eGFP, high-content imaging; type: cell-based; settings: lowest concentration at which maximum internalization was observed; 0.914 nM to 2000 nM
Sequence (P35414 whole entry, the tested form may be a part): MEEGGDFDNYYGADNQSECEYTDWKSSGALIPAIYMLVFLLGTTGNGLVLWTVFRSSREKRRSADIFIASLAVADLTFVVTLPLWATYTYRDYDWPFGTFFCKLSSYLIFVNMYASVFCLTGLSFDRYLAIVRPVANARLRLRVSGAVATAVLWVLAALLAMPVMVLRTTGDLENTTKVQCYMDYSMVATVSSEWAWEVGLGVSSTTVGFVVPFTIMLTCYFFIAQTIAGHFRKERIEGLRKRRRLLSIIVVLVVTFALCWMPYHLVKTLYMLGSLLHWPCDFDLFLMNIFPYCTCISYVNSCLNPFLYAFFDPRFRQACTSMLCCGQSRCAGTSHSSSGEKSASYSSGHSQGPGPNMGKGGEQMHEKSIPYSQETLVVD
Here the recorded Internalization Score is given for each entry.
measuredAttribute: Internalization Score

APL-J: Leader-Fc-linker fusion of apelin analogue QRPRLSHKGPAAY (M11A, P12A, F13Y) (protein) MRAWIFFLLCLAGRALADKTHTSPPSPAPEAAGGPSVFLFPPKPKDTLMISRTPEVTCVVVDVSHEDPEVKFNWYVDGVEVHNAKTKPREEQYNSTYRVVSVLTVLHQDWLNGKEYKCKVSNKALPAPIEKTISKAKGQPREPQVYTLPPSREEMTKNQVNLTCLVKGFYPSDIAVEWESNGQPENNYKTTPPVLDSDGSFFLNSTLTVDKSRWQQGNVFSCSVMHEALHNHYTQKSLSLSPGKGGGGSGGGGSGGGGSQRPRLSHKGPAAY :: 1 (>1000)
ELA-A: Fc-linker fusion of wild-type elabela-22 KLRKHNCLQRRCMPLHSRVPFP (protein) MRAWIFFLLCLAGRALADKTHTSPPSPAPEAAGGPSVFLFPPKPKDTLMISRTPEVTCVVVDVSHEDPEVKFNWYVDGVEVHNAKTKPREEQYNSTYRVVSVLTVLHQDWLNGKEYKCKVSNKALPAPIEKTISKAKGQPREPQVYTLPPSREEMTKNQVNLTCLVKGFYPSDIAVEWESNGQPENNYKTTPPVLDSDGSFFLNSTLTVDKSRWQQGNVFSCSVMHEALHNHYTQKSLSLSPGKGGGGSGGGGSGGGGSKLRKHNCLQRRCMPLHSRVPFP :: 3 (10-100)
ELA-F: Fc-linker fusion of elabela analogue KLRKHNCLKRRCMPLHSRVPFP (Q9K) (protein) MRAWIFFLLCLAGRALADKTHTSPPSPAPEAAGGPSVFLFPPKPKDTLMISRTPEVTCVVVDVSHEDPEVKFNWYVDGVEVHNAKTKPREEQYNSTYRVVSVLTVLHQDWLNGKEYKCKVSNKALPAPIEKTISKAKGQPREPQVYTLPPSREEMTKNQVNLTCLVKGFYPSDIAVEWESNGQPENNYKTTPPVLDSDGSFFLNSTLTVDKSRWQQGNVFSCSVMHEALHNHYTQKSLSLSPGKGGGGSGGGGSGGGGSKLRKHNCLKRRCMPLHSRVPFP :: 3 (10-100)

Cited source for all entries: patent US20240383958A1
